Parameter: Top (maximal cell death, % control). Scope: all listed entries.
- Tested on: primary rat cortical cultures
- run description: Neutral red (NR) uptake cytotoxicity assay
- Assay type: cell-based
- details: fitted NR curve, primary rat cortical neurons, 24 h
Value expressed in % control; do not type the unit.

Task: Returns the measured Top (maximal cell death, % control) for the input compound. Input: `CCSc1cc(OC)c(CCNCc2ccccc2OC)cc1OC.Cl`
Output: 81.45

Task: Then this compound: `CCCSc1cc(OC)c(CCNCc2ccccc2OC)cc1OC.Cl`
Output: 82.95

Task: Then this compound: `COc1cc(SC(C)C)c(OC)cc1CCNCc1ccccc1OC.Cl`
Output: 83.51

Task: Then this compound: `CCCSc1cc(OC)c(CCN)cc1OC.Cl`
Output: 84.63

Task: Then this compound: `COc1cc(SC(C)C)c(OC)cc1CCN.Cl`
Output: 82.56

Task: Then this compound: `CCSc1cc(OC)c(CCN)cc1OC.Cl`
Output: 83.85

The values you see were collected from paper PMC11204507.
